Assay: solvent given as SMILES
Settings: in ClCCl
Response field label takes Fulfilled when emission maximum is strictly below 500 nm and Not fulfilled in all other cases.

RECORD_SMILES	DISCRETE_LABEL
COc1cc(-c2cnc(-c3ccncc3)o2)cc(OC)c1OC	Fulfilled
N#CC(C#N)=Cc1ccc2c(c1)[nH]c1c3ccccc3sc21	Not fulfilled
COc1ccc(C2=CC(c3cc(OC)cc(OC)c3)=[O+][B-](F)(F)O2)cc1	Not fulfilled
COC(=O)C1=C(C(=O)OC)C2(c3ccccc3-c3ccccc32)[C@@H](c2ccccc2)C=C2c3cc(OC)c(OC)cc3CCN21	Fulfilled
Cc1c2ccc(=[N+]3CCCCC3)cc-2oc2cc(N3CCCCC3)ccc12	Not fulfilled

----------
Assay: solvent given as SMILES
Conditions: in CCOC(C)=O
Assign True to entries whose emission maximum meets or exceeds 400 nm; assign False to the rest.

RECORD_SMILES	DISCRETE_LABEL
CCn1c2ccccc2c2cc(/C=C/c3cc(/C=C/c4ccc5c(c4)c4ccccc4n5CC)ncn3)ccc21	True
Oc1ccccc1/C=N/c1ccc(Cn2cncn2)cc1	False
c1ccc2c(-n3cnc4ccccc43)cccc2c1	False
CN(C)c1ccc(/C=C2\OC(=O)c3cc(N)ccc32)cc1	True
COc1ccc(/C=C/c2ccccc2)cc1	False
CC1=[N+]2C(=C(c3ccc(C(=O)c4ccccc4)cc3)c3ccc(C)n3[B-]2(F)F)C=C1c1cc2n(c1)[B-](F)(F)[N+]1=CC=CC1=C2c1c(C)cc(C)cc1C	True
N#CC(C#N)=C(/C=C/c1cn(-c2ccccc2)nc1-c1ccccc1)c1ccccc1	True

----------
Assay: solvent given as SMILES
Conditions: in Cc1ccccc1
PROPERTY_NAME: emission maximum (nm)

RECORD_SMILES	PROPERTY_NAME	UNIT_OF_MEASURE	VALUE_OBSERVED
CCCCCCCCCC1(CCCCCCCCC)c2cc(C#Cc3ccc(C#Cc4ccc(N(CCCCCC)CCCCCC)cc4)cc3)ccc2-c2ccc(C#Cc3ccc(C#Cc4ccc(N(CCCCCC)CCCCCC)cc4)cc3)cc21	emission maximum	nm	433
COc1ccc(N(c2ccc(OC)cc2)c2ccc3c4cccc5c(N(c6ccc(OC)cc6)c6ccc(OC)cc6)ccc(c6cccc2c63)c54)cc1	emission maximum	nm	574
CN(C)c1ccc2nc(/C=C/c3ccccc3)c(=O)oc2c1	emission maximum	nm	523
Cc1ccc(-c2ccc(/C=C/c3cccn3C)cn2)nc1	emission maximum	nm	459
N#CC(C#N)=Cc1ccc2c(c1)[nH]c1c3ccccc3sc21	emission maximum	nm	518
Cc1cc(C)c(B(c2ccc(N3c4ccccc4C(C)(C)c4ccccc43)cc2)c2c(C)cc(C)cc2C)c(C)c1	emission maximum	nm	484
N#Cc1c(-n2c3ccc(Br)cc3c3cc(Br)ccc32)c(-n2c3ccc(Br)cc3c3cc(Br)ccc32)c(C#N)c(-n2c3ccc(Br)cc3c3cc(Br)ccc32)c1-n1c2ccc(Br)cc2c2cc(Br)ccc21	emission maximum	nm	546
CC1(C)c2ccccc2N(c2ccc(-c3ccc4c(c3)C(=O)c3ccc(-c5ccc(N6c7ccccc7C(C)(C)c7ccccc76)cc5)cc3C4=O)cc2)c2ccccc21	emission maximum	nm	609

----------
Experiment: solvent given as SMILES
Details: in ClC(Cl)Cl

RECORD_SMILES	UNIT_OF_MEASURE	emission maximum
O=c1c2ccccc2c2c(C#C[Si](c3ccccc3)(c3ccccc3)c3ccccc3)c3c(=O)c4ccccc4c3c(C#C[Si](c3ccccc3)(c3ccccc3)c3ccccc3)c12	nm	570
CN(C)c1ccc2nc(/C=C/c3cc4c5c(c3)CCCN5CCC4)c(=O)oc2c1	nm	671
Cc1ccc(-c2cc(-c3ccccc3Cl)c3c(N)nc(N4CCCC4)c(C#N)c3n2)cc1	nm	508
Cc1cc(C)c(C2=C3C=CC(c4cccc5ccccc45)=[N+]3[B-](F)(F)n3c2ccc3-c2cccc3ccccc23)c(C)c1	nm	601
CN(C)c1ccc(/C=C/C=C2\CC/C(=C\c3ccc(N(C)C)cc3)C2=O)cc1	nm	623
COc1ccc2c(c1)CCc1c(-c3ccccc3)c3n(c1-2)[B-](F)(F)[N+]1=C2C(=C(c4ccccc4)C1=N3)CCc1ccccc12	nm	734
N#CC1=CC(/C=C/c2ccccc2)=CC(C#N)=P1(c1ccccc1)c1ccccc1	nm	581
CCc1cc(CC)cc(-n2c3ccccc3c3cc4c(cc32)c2ccccc2n4-c2cc(CC)cc(CC)c2)c1	nm	416
F[B-]1(F)OC(c2cccc(Br)c2)=Cc2c3ccccc3c3ccccc3[n+]21	nm	446
COc1ccc(C#Cc2ccc(C#N)cc2)cc1OC	nm	404
C(#Cc1cccc(C#Cc2ccc(-n3c4ccccc4c4ccccc43)cc2)c1)c1ccc(-n2c3ccccc3c3ccccc32)cc1	nm	368
CC(C)(C)c1cc2ccc3c(-c4ccc(N(c5ccccc5)c5ccccc5)cc4)ccc4c5nc6cc(C#N)c(C#N)cc6nc5c(c1)c2c34	nm	784.69
CCCCCCc1cc2c3cscc3c3cc(CCCCCC)sc3c2s1	nm	442
Cc1ccc(N(c2ccc(C)cc2)c2ccc(-c3ccc(C=C(C#N)C#N)s3)cc2)cc1	nm	670
FC(F)(F)c1ccc(-c2nc(-c3ccc(C(F)(F)F)cc3)n3ccccc23)cc1	nm	480
CC1(C)CCc2c(c3ccccc3c3nc4ccccc4nc23)O1	nm	490.92
CCN(CC)c1cccc2c1ccc1c(=O)oc(-c3ccc(C(F)(F)F)cc3)cc12	nm	542
N#CC(C#N)=Cc1ccc(-c2ccc(N(c3ccccc3)c3ccccc3)cc2)o1	nm	618

----------
Experiment: solvent given as SMILES
Conditions: in C1COCCO1
Response field label takes y when emission maximum is strictly below 400 nm and n in all other cases.

MOLECULE	DISCRETE_LABEL
CN(C)c1ccc(/C=C/c2nc3ccc(N(C)C)cc3oc2=O)cc1	n
Cc1cc(=O)c2ccc(N)cc2o1	y
N#Cc1c2nc3ccccn3c2nc2nc3ccccn3c12	n
CCCCC[n+]1ccc(/C=C/c2ccc(N(C)C)c3ccccc23)c2ccccc21	n
N#Cc1c2nc3ccccn3c2nc2c1nc1ccccn12	n
CN(C)c1ccc2nc(/C=C/c3ccccc3)c(=O)oc2c1	n
Oc1ccccc1/C=N/c1ccc(Cn2cncn2)cc1	y
N#C[Se]CCCCCOc1ccc2ccc(=O)oc2c1	y
COC(=O)c1nc2cnc(N)nc2n1Cc1ccccc1	y
CN1CCN(c2ccc3c4c(cccc24)C(=O)c2ccccc2-3)CC1	n
Cc1ccc(-c2ccc(/C=C/c3cccn3C)cn2)nc1	n
CCCCCCCCCCCCCCCCOc1cc(C#Cc2ccc3ccccc3c2)c(OCCCCCCCCCCCCCCCC)cc1C#Cc1ccc(C=C(C#N)C#N)cc1	n
NS(=O)(=O)c1ccc(N2N=C(c3ccc(O)cc3)CC2c2ccccc2)cc1 (centres undefined)	n
CCOC(=O)c1sc2nc(-c3ccccc3)c(C)c(C#N)c2c1N	n
N#Cc1cc2ccccc2[nH]1	y
CCN(CC)c1ccc2nc3c4ccccc4c(=O)cc-3oc2c1	n
NS(=O)(=O)c1ccc(N2N=C(c3ccc(O)cc3)CC2c2ccc(Cl)cc2)cc1 (centres undefined)	n
CN(C)c1ccc2nc(/C=C/c3cc4c5c(c3)CCCN5CCC4)c(=O)oc2c1	n
COC(=O)c1ccc(/C=C2\N=C(c3ccc([N+](=O)[O-])cc3)NC2=O)cc1	n
CC(=O)c1c2c(cc3cc(N(C)C)ccc13)CCC2	n

----------
List of emission maximum values.
Assay: solvent given as SMILES
Settings: in CC#N
PROPERTY_NAME: emission maximum (nm)

COMPOUND	PROPERTY_NAME	VALUE_OBSERVED
COc1ccc(-c2nc3c([nH]2)C2=CC(=O)S[C@]2(C)[C@@]2(C)SC(=O)C=C32)cc1	emission maximum	533
CC(C)c1ccc(/C=C/c2nc3ccc(N(C)C)cc3s2)cc1	emission maximum	517
COc1ccc(/C=C/C(=O)c2c(O)cc(C)oc2=O)cc1	emission maximum	488
O=C(O)CC[N+]1=c2cc3c(cc2CCC1)=Cc1c(c2cc4c5c(c2oc1=O)CCCN5CCC4)O3	emission maximum	683
COc1ccc(-c2c3ccccc3c3n2[B-](F)(F)[N+]2=Cc4c5ccccc5c(-c5ccc(OC)cc5)n4[B-](F)(F)[N+]2=C3)cc1	emission maximum	606
O=Cc1ccc(-c2ccc(C3=CCC(c4ccccc4)CC3)s2)s1 (stereo not given)	emission maximum	483
Cc1cc(=O)c2ccc(N)cc2o1	emission maximum	388
COc1ccc(-n2c3ccccc3c3cc(/C=C/C(=C(C#N)C#N)c4ccccc4)ccc32)cc1	emission maximum	594
CCOC(=O)CN1C(=O)C2=C(c3ccc(C#N)cc3)N(CC(=O)OCC)C(=O)C2=C1c1ccc(C#N)cc1	emission maximum	549
COc1ccc(/C=C/c2ccc(-c3nnc(-c4ccc(-c5cc6ccccc6s5)cc4)o3)cc2)cc1	emission maximum	441

----------
Test: solvent given as SMILES
Conditions: in CC1CCCCC1
Assign YES to entries whose emission maximum meets or exceeds 500 nm; assign NO to the rest.

MOLECULE	DISCRETE_LABEL
c1ccc2c(c1)Sc1ccccc1S2	NO
CC(C)(C)c1cc2c3cc(C(C)(C)C)c(-c4cc5cc6c7cccc8cccc(c9cc(C(C)(C)C)cc(c5cc4C(C)(C)C)c96)c87)cc3cc3c4cccc5cccc(c(c1)c23)c54	NO
COC(=O)C(NC(=O)OC(C)(C)C)c1ccc2oc(-c3ccc(OC(=O)c4ccccc4)cc3O)nc2c1 (stereo not drawn)	NO
CNc1cccc2c1C(=O)c1ccccc1C2=O	YES
COC(=O)C(NC(=O)OC(C)(C)C)c1ccc2oc(-c3cc(OC)ccc3OC)nc2c1 (stereo not drawn)	NO
c1cc(N2CCCC2)ccn1	NO
